Provenance of the data: paper PMC9012672

# procedure_details: CodeBreaK 100 multiple-dose PK
# Format: in vivo, human
# test_parameters: human, plasma, po, 720 mg
measured_parameter: Tmax (h)
Answers are plain numbers, in h.

Consider the compound C=CC(=O)N1CCN(c2nc(=O)n(-c3c(C)ccnc3C(C)C)c3nc(-c4c(O)cccc4F)c(F)cc23)[C@@H](C)C1 [sotorasib] . State its measured Tmax.
1.1

---

# procedure_details: CodeBreaK 100 multiple-dose PK
# Format: in vivo, human
# test_parameters: human, plasma, po, 180 mg
measured_parameter: half-life (h)
Give bare numbers, in h.

Please report half-life for the following compound: C=CC(=O)N1CCN(c2nc(=O)n(-c3c(C)ccnc3C(C)C)c3nc(-c4c(O)cccc4F)c(F)cc23)[C@@H](C)C1
5.13

---

# procedure_details: CodeBreaK 100 multiple-dose PK
# Format: in vivo, human
# test_parameters: human, plasma, po, 180 mg
measured_parameter: Cmax (ng/mL)
Answers are plain numbers, in ng/mL.

Give the reported value of Cmax for this record: C=CC(=O)N1CCN(c2nc(=O)n(-c3c(C)ccnc3C(C)C)c3nc(-c4c(O)cccc4F)c(F)cc23)[C@@H](C)C1 [sotorasib]
6440

---

# procedure_details: CodeBreaK 100 multiple-dose PK
# Type: in vivo, human
# test_parameters: human, plasma, po, 960 mg
measured_parameter: Tmax (h)
Give bare numbers, in h.

Return the recorded Tmax value; entry: C=CC(=O)N1CCN(c2nc(=O)n(-c3c(C)ccnc3C(C)C)c3nc(-c4c(O)cccc4F)c(F)cc23)[C@@H](C)C1 [sotorasib]
1.1

---

# procedure_details: CodeBreaK 100 multiple-dose PK
# Assay type: in vivo, human
# test_parameters: human, plasma, po, 720 mg
measured_parameter: AUC(0-t) (ng·h/mL)
Answers are plain numbers, in ng·h/mL.

Respond only with AUC(0-t) recorded for C=CC(=O)N1CCN(c2nc(=O)n(-c3c(C)ccnc3C(C)C)c3nc(-c4c(O)cccc4F)c(F)cc23)[C@@H](C)C1
42100

---

# procedure_details: CodeBreaK 100 multiple-dose PK
# Assay type: in vivo, human
# test_parameters: human, plasma, po, 960 mg
measured_parameter: half-life
Be sure to follow the number with its unit.

Return the recorded half-life value; entry: C=CC(=O)N1CCN(c2nc(=O)n(-c3c(C)ccnc3C(C)C)c3nc(-c4c(O)cccc4F)c(F)cc23)[C@@H](C)C1
5.07 h

---

# procedure_details: CodeBreaK 100 multiple-dose PK
# Assay type: in vivo, human
# test_parameters: human, plasma, po, 180 mg
measured_parameter: AUC(0-t) (ng·h/mL)
One number for each entry, in ng·h/mL.

Given C=CC(=O)N1CCN(c2nc(=O)n(-c3c(C)ccnc3C(C)C)c3nc(-c4c(O)cccc4F)c(F)cc23)[C@@H](C)C1 [sotorasib] , respond with its AUC(0-t).
31700

---

# procedure_details: CodeBreaK 100 multiple-dose PK
# Type: in vivo, human
# test_parameters: human, plasma, po, 180 mg
measured_parameter: Tmax (min)
Give bare numbers, in min.

Quick one: give measured Tmax for C=CC(=O)N1CCN(c2nc(=O)n(-c3c(C)ccnc3C(C)C)c3nc(-c4c(O)cccc4F)c(F)cc23)[C@@H](C)C1 [sotorasib]
43.8

---

# procedure_details: CodeBreaK 100 multiple-dose PK
# Format: in vivo, human
# test_parameters: human, plasma, po, 960 mg
measured_parameter: Cmax

State its Cmax: C=CC(=O)N1CCN(c2nc(=O)n(-c3c(C)ccnc3C(C)C)c3nc(-c4c(O)cccc4F)c(F)cc23)[C@@H](C)C1
5390 ng/mL
